Source: patent US7705029B2

Each entry below carries its recorded IC50.
- Tested on: IL-2 production in a Human Jurkat Cell Line
- ASSAY_COMMENT: Inhibition of IL-2 production in PHA-stimulated Jurkat cells (IL-2 ELISA)
- Format: cell-based
- MEASUREMENT_PARAMETERS: Homo sapiens, Jurkat, 20 h, read-out: IC50 (concentration at which IL-2 release is inhibited by 50%)

N#CC(=Cc1ccc(-n2c(C(F)(F)F)nc3ccccc32)cc1)c1cccc(F)c1F [Compound 45]    10 to 1000 nM
N#CC(=Cc1ccc(-n2ccc(C(F)(F)F)n2)cc1)C(=O)c1cccc(F)c1F [Compound 38]    > 1000 nM
Cc1cc(C(F)(F)F)n(-c2ccc(C=C(C#N)c3cc(F)cc(F)c3)cc2)n1 [Compound 22]    10 to 1000 nM
N#CC(=Cc1ccc(-n2nc(C(F)(F)F)cc2OC(F)F)cc1)c1ccccc1F [Compound 2]    10 to 1000 nM
Cc1cc(C(F)(F)F)n(-c2ccc(/C=C(\C#N)c3cc(F)ccc3F)cc2)n1 [Compound 15]    10 to 1000 nM
N#CC(=Cc1ccc(-n2ccc(-c3ccccc3)n2)cc1)C(=O)c1cccc(F)c1F [Compound 35]    > 1000 nM

Now examine the next entry.
Entry N#CC(=Cc1ccc(-n2ccc(C(F)(F)F)n2)cc1)c1ccc(F)cc1F [Compound 16] ; IC50 = > 1000 nM
